Hello, the source for this data is the RNAGym collection of RNA variant scans (doi:10.1093/molbev/msab373), in case you need it.

Recorded measurements of reverse-splicing fitness, one per entry
B1: Azoarcus group I ribozyme (parent)
chain: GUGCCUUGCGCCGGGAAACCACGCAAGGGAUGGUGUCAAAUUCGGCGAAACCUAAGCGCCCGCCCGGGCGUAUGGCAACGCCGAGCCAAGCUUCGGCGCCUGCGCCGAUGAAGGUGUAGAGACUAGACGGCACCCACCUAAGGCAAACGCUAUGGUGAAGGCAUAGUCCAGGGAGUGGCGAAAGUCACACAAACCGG

Variants of: B1
Test: reverse-splicing fitness (ratio to wild type); higher = more active; in vitro selection; Mg2+ level not given
Quantity Kind: reverse-splicing fitness

- C82G A120G A145C C150A C169A U176G: 0.00483
- A120C A145C C150G C169A U176C: 0.00596
- C82G A111U A145C C150A C169G: 0.00822
- C82U A111G A120G A145C C150G U176A: 0.00404
- C82A A111U A120C C150G C169A U176C: 0.0122
- C82U A111G A145U C150U C169G U176C: 0.0105
- C82G A120C A145U C150G U176C: 0.0164
- C82A A111G A120C A145C C150A U176G: 0.00529
- A111G A145U C150A C169G U176C: 0.0131
- C82A A111G A120U A145U C150G C169U: 0.00268
- C82U A111G A120G C169A U176C: 0.023
- C82U A111C A120C A145U C150U C169G U176A: 0.0126
- C82G A120U U176A: 0.0729
- C82U A111U A120U C150A C169G U176C: 0.00448
- C82A A111G A120G A145U C169A U176G: 0.0046
- C82U A111U A120C A145U C150A C169A U176C: 0.0094
- C82G A111C A120U A145U C150U U176C: 0.013
- C82U A111U A120U A145G C150U C169U U176G: 0.00209
- C82A A111C A120G A145U C150A C169G U176C: 0.0156
- C82A A111U A120C A145U C169U U176G: 0.00555
- C82A A111G A120G A145C C150A C169G: 0.00922
- A111U A120U A145G C150U C169G U176A: 0.00769
